Answer each item with its documented melting point.
Structures can show the parent of a compound that is named as a salt.

compound="COc1ccc(-c2ccc(C#N)cc2)cc1CN[C@H]1CC[C@@H](C)N[C@H]1c1ccccc1 [Example 113]" reported_value="298 to 300 °C"
compound=COc1ccc(-c2ccc(F)cc2)cc1CN[C@H]1CCCN[C@H]1c1ccccc1.Cl.Cl reported_value="277 to 279 °C (dec.)"
compound="COc1ccc(-c2ccc(F)cc2)cc1[C@@H](C)N[C@H]1CCCN[C@H]1c1ccccc1 (as salt: hydrochloride) [Example 101, dihydrochloride]" reported_value="200 to 204 °C (dec.)"

Switching to the query record.
Asked: Recorded melting point of COc1ccc(-c2ccccc2C(F)(F)F)cc1CN[C@H]1CCCN[C@H]1c1ccccc1.Cl.Cl (racemic) , please.
Given back: 260 to 262 °C

* * *

Structures can show the parent of a compound that is named as a salt.
metric_name: melting point

The cases that follow already have their melting point on record.
compound="COc1ccc(-c2ccc(C#N)cc2)cc1CN[C@H]1CCCN[C@H]1c1ccccc1 [Example 16]" metric_name="melting point" reported_value="277 to 278 °C (dec.)"
compound="COc1ccc(-c2ccc(F)cc2)cc1CN[C@H]1CCCN(Cc2n[nH]c(=O)o2)[C@H]1c1ccccc1 (as salt: hydrochloride) [Example 106]" metric_name="melting point" reported_value="212 to 216 °C (dec.)"

Switching to the query record.
Asked: Recorded melting point of COc1ccc(-c2ccc(F)cc2)cc1[C@H](C)N[C@H]1CCCN[C@H]1c1ccccc1 (as salt: hydrochloride) [Example 102, dihydrochloride] , please.
Given back: 274 to 278 °C (dec.)

* * *

Structures can show the parent of a compound that is named as a salt.
metric_name: melting point

The cases that follow already have their melting point on record.
compound=COc1ccc(-c2ccc(C#N)cc2F)cc1CN[C@H]1CC[C@@H](C)N[C@H]1c1ccccc1 reported_value="301 to 302 °C (dec.)"
compound="COc1ccc(-c2ccc(F)cc2)cc1CN[C@H]1CCCN(Cc2n[nH]c(=O)[nH]2)[C@H]1c1ccccc1 (as salt: hydrochloride) [Example 104, dihydrochloride]" reported_value="198 to 200 °C (dec.)"
compound=COc1ccc(-c2ccc(C#N)cc2F)cc1CN[C@H]1CCCN[C@H]1c1ccccc1 reported_value="280 to 281 °C (dec.)"
compound="COc1ccc(-c2ccc(F)cc2)cc1CN[C@H]1CCCN(Cc2n[nH]c(=S)[nH]2)[C@H]1c1ccccc1 (as salt: hydrochloride)" reported_value="180 to 182 °C (dec.)"
compound=COc1ccc(-c2ccc(Cl)cc2)cc1CN[C@H]1CCCN[C@H]1c1ccccc1 reported_value="272 to 274 °C (dec.)"

Switching to the query record.
Asked: Recorded melting point of COc1ccc(-c2ccc(F)cc2)cc1CN[C@H]1CCCN(Cc2nnc[nH]2)[C@H]1c1ccccc1 (as salt: hydrochloride) [Example 103, trihydrochloride] , please.
Given back: 208 to 210 °C (dec.)
